Hello, the source for this data is ChEMBL document CHEMBL1156034, in case you need it.

assay-summary: Inhibition of NF-kappaB activation
reported-metric: IC50
State the result as a value with its unit after it.

Below, 8 molecules whose answers are already recorded.
- molecule: "Cc1ccc2cccc(NS(=O)(=O)c3ccccc3N)c2n1"
  IC50: "2800 nM"
- molecule: "COC(=O)C1[C@@H](O)[C@@]2(O)c3c(OC)cc(OC)cc3O[C@@]2(c2ccc(OC)cc2)[C@@H]1c1ccccc1 (stereo partly specified)"
  IC50: "197 nM"
- molecule: "Cc1ccc2cccc(NS(=O)(=O)c3ccc(Cl)s3)c2n1"
  IC50: "1000 nM"
- molecule: "COc1cnc2c3c(ccc2c1)-c1ccccc1S(=O)(=O)N3"
  IC50: "2500 nM"
- molecule: "Nc1ccccc1S(=O)(=O)Nc1cccc2cccnc12"
  IC50: "2000 nM"
- molecule: "Cc1ccc2ccc3c(c2n1)NS(=O)(=O)c1ccc(O)cc1-3"
  IC50: "10000 nM"
- molecule: "COc1ccc(S(=O)(=O)Nc2cccc3ccc(C)nc23)c([N+](=O)[O-])c1"
  IC50: "1000 nM"
- molecule: "O=S(=O)(Nc1cccc2cccnc12)c1cccs1"
  IC50: "3600 nM"

INPUT: Return reported IC50; argument: O=S1(=O)Nc2c(ccc3cccnc23)-c2cc(C(F)(F)F)ccc21
OUTPUT: 1000 nM

INPUT: Return reported IC50; argument: Nc1ccc2ncnc(NCCc3ccc(F)cc3)c2c1
OUTPUT: 574 nM

INPUT: Return reported IC50; argument: Clc1ccc(CCNc2ncnc3ccccc23)cc1
OUTPUT: 630 nM

----------
assay-summary: Inhibition of NF-kappaB activation
// map IC50 to label using low (below 0.2 µM), mid (0.2 µM to below 2 µM), high (2 µM or more)

Would you please look over these solved cases?
- compound: "O=[N+]([O-])c1ccc2ncnc(NCCc3ccc(Cl)cc3)c2c1"
  answer-label: "mid"
- compound: "O=S1(=O)Nc2c(ccc3cccnc23)-c2cc(F)ccc21"
  answer-label: "mid"
- compound: "CCCCCCOc1ccc(CCNc2ncnc3ccc(N)cc23)cc1"
  answer-label: "low"

INPUT: Sort into band: Nc1ccc2ncnc(NCCc3ccc(Br)cc3)c2c1
OUTPUT: mid

INPUT: Sort into band: CC(C)Oc1ccc(CCNc2ncnc3ccc(N)cc23)cc1
OUTPUT: low

INPUT: Sort into band: Clc1ccc(CCCNc2ncnc3ccccc23)cc1
OUTPUT: mid

INPUT: Sort into band: CN(C)C(=O)c1ccc(CCNc2ncnc3ccc(N)cc23)cc1
OUTPUT: high

INPUT: Sort into band: Nc1ccc2ncnc(NCCc3ccc(Cl)cc3)c2c1
OUTPUT: low

INPUT: Sort into band: CC(C)c1cccc(C(C)C)c1N1C(=O)c2cccc(O)c2C1=O
OUTPUT: high

----------
assay-summary: Inhibition of NF-kappaB activation
pIC50 overview
Notebook: values listed as pIC50 are -log10 of the concentration (mol/L).

Below, 5 molecules whose answers are already recorded.
- molecule: "C=CCOc1ccc(CCNc2ncnc3ccc(N)cc23)cc1"
  pIC50: 7.92
- molecule: "COc1ccc(CCNc2ncnc3ccc(N)cc23)cc1"
  pIC50: 7.05
- molecule: "Cc1ccc(S(=O)(=O)Nc2cccc3cccnc23)c([N+](=O)[O-])c1"
  pIC50: 5.68
- molecule: "Cc1ccc2c(c1)-c1ccc3cccnc3c1NS2(=O)=O"
  pIC50: 6.22
- molecule: "O=[N+]([O-])c1ccc2c(NCCc3ccc(Cl)cc3)ncnc2c1"
  pIC50: 5.75

INPUT: Return reported pIC50; argument: O=[N+]([O-])c1ccccc1S(=O)(=O)Nc1cccc2cccnc12
OUTPUT: 5.49

INPUT: Return reported pIC50; argument: COc1cc(NS(=O)(=O)c2ccc(C)cc2[N+](=O)[O-])c2ncccc2c1
OUTPUT: 5.68

INPUT: Return reported pIC50; argument: COC(=O)C1[C@@H](O)[C@@]2(O)c3c(cc4c(c3OC)OCO4)O[C@@]2(c2ccc(OC)cc2)[C@@H]1c1ccccc1 (stereo partly specified)
OUTPUT: 6.61

INPUT: Return reported pIC50; argument: Cc1ccc2cccc(NS(=O)(=O)c3ccc(Br)s3)c2n1
OUTPUT: 5.85

INPUT: Return reported pIC50; argument: CC(=O)Nc1ccc2ncnc(NCCc3ccc(Cl)cc3)c2c1
OUTPUT: 5.34

INPUT: Return reported pIC50; argument: Nc1ccc2ncnc(NCCc3ccc(O)cc3)c2c1
OUTPUT: 5.44
